- assay system: PI3Kβ (Homo sapiens)
- Construct: His tag (pFastbac HTa vector) (N); FLAG (N); made in house; host or cells: Sf21 insect cells (baculovirus)
- Sequence (P42338 whole entry, one chain of several): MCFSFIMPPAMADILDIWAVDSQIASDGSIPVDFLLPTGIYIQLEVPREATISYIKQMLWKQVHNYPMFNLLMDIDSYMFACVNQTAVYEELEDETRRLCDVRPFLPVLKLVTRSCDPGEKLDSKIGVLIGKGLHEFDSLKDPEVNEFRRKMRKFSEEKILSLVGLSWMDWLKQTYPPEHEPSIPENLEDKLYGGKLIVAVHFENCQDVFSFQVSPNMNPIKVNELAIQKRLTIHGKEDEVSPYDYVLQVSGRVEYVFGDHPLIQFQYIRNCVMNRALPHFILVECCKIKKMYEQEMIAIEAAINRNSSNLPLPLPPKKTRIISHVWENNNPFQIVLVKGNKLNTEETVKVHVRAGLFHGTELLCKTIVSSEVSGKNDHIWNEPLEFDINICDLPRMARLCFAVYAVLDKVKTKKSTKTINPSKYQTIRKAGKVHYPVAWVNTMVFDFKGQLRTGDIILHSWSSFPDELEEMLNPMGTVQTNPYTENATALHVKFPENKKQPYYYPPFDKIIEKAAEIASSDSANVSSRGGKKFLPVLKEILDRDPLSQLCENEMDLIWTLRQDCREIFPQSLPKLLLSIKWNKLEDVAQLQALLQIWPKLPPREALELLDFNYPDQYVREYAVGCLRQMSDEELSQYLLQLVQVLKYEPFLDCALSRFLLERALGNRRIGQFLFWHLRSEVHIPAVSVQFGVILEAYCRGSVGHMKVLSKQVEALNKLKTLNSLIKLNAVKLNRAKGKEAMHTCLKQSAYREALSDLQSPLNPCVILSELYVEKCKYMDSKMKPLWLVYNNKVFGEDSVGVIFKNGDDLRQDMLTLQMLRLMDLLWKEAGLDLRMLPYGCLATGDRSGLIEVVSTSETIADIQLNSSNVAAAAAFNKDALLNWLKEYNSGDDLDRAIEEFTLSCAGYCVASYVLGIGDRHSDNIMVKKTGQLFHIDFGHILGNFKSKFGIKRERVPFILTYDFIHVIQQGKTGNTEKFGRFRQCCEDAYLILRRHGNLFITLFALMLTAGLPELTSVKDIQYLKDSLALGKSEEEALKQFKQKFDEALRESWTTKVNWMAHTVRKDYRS
- run description: Biochemical assay of PI3K potency and selectivity using 20 μM ATP, Beta
- cond: 20 μM ATP; ratio of IC50 values; > = hypothetical ratio with 100 μM substituted for the missing IC50
property name: Beta/Delta Ratio
Give bare numbers.

Solved cases (5 shown):
# structure smiles string, Beta/Delta Ratio
records = [
    ("Cc1cccc2nc(Cn3cnc4c(N)ncnc43)n(-c3ccccc3Cl)c(=O)c12", 188),
    ("Nc1ncnc2c1ncn2Cc1nc2cccc(Cl)c2c(=O)n1-c1ccccc1F", 65),
    ("O=c1c2cc3ccccc3cc2nc(CSc2ncnc3[nH]cnc23)n1-c1ccccc1Cl", 15),
    ("Cc1ccccc1-n1c(CSc2ncnc3[nH]cnc23)nc2cccc(Cl)c2c1=O", 183),
    ("O=c1c2cccc(Cl)c2nc(CSc2ncnc3[nH]cnc23)n1-c1ccccc1Cl", 68),
]

Hi, could you look up Beta/Delta Ratio for each item in my list?
1. Cc1cccc2nc(Cn3cnc4c(N)ncnc43)n(-c3ccccc3F)c(=O)c12
2. Nc1ncnc2c1ncn2Cc1nc2cccc(F)c2c(=O)n1Cc1ccccc1

1: 90; 2: 30

Hi, could you look up Beta/Delta Ratio for each item in my list?
1. COc1ccccc1-n1c(CSc2ncnc3[nH]cnc23)nc2cccc(C)c2c1=O
2. O=c1c2cc(F)c(F)cc2nc(CSc2ncnc3[nH]cnc23)n1-c1ccccc1Cl

[100, 97]

Hi, could you look up Beta/Delta Ratio for each item in my list?
1. O=c1c2cc(F)ccc2nc(CSc2ncnc3[nH]cnc23)n1-c1ccccc1Cl
2. Nc1ncnc2c1ncn2Cc1nc2cccc(Cl)c2c(=O)n1-c1ccccc1-c1ccccc1

1. 69
2. 50

====

Assign IC50 to each entry below.
- assay system: PI3Kα (Homo sapiens)
- Construct: His tag (pFastbac HTb vector) (N); FLAG; made in house; host or cells: Sf21 insect cells (baculovirus)
- run description: Biochemical assay using 200 μM ATP, Alpha
Give bare numbers, in µM.

# molecule, property name, unit symbol, obs value
records = [
    ("Cc1cccc2nc(Cn3cnc4c(N)ncnc43)n(-c3ccccc3F)c(=O)c12 [Compound D-048]", "IC50", "µM", 90),
]

Moving on to another molecule below.
Entry Cc1cccc2nc(CSc3ncnc4[nH]cnc34)n(-c3ccccc3C(C)C)c(=O)c12 [Compound D-035] has what IC50?
95

====

- assay system: PI3Kγ (Homo sapiens, UniProt P48736)
- Construct: His tag (pFastbac HTb vector) (N); FLAG (N); made in house; host or cells: Sf21 insect cells (baculovirus)
- Sequence (P48736 whole entry): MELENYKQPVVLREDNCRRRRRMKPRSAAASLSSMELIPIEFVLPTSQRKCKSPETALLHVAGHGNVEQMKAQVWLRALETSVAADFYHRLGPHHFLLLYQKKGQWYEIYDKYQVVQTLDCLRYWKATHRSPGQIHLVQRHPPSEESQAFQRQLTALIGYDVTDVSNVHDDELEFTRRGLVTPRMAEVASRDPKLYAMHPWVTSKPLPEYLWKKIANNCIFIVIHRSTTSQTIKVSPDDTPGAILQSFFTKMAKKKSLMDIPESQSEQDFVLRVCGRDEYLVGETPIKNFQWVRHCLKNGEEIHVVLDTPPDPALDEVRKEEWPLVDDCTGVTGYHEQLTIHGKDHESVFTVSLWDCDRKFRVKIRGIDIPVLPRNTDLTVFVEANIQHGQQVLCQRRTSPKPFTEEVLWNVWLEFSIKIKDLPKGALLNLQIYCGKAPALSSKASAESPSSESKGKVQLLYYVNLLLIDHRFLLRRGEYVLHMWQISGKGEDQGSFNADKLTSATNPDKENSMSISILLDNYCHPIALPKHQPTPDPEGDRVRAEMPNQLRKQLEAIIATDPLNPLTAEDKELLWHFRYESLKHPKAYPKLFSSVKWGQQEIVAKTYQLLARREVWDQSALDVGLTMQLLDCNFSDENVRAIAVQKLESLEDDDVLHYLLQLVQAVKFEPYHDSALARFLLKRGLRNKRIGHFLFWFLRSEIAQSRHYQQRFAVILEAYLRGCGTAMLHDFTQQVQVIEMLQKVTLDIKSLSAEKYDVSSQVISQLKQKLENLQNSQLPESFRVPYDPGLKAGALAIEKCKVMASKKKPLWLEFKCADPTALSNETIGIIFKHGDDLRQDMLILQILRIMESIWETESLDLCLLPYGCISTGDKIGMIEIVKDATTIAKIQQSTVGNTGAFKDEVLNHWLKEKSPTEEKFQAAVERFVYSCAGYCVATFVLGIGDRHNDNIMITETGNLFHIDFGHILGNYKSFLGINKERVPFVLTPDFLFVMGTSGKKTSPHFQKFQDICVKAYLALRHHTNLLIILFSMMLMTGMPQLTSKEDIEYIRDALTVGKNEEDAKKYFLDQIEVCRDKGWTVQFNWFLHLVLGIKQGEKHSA
- run description: Biochemical assay of PI3K potency and selectivity using 20 μM ATP, Gamma
pIC50: −log10 of the molar value.
Criterion: pIC50 meeting or surpassing 6. Met: criterion met. Not met: criterion not met.

Would you say Cc1cccc2nc(CSc3ncnc4[nH]cnc34)n(-c3ccccc3Cl)c(=O)c12 shows pIC50 at minimum 6?
criterion not met

Would you say COc1ccccc1-n1c(CSc2ncnc3[nH]cnc23)nc2cccc(C)c2c1=O shows pIC50 at minimum 6?
criterion met

Would you say O=c1c2ccccc2nc(CSc2ncnc3[nH]ncc23)n1-c1ccccc1Cl [Compound D-999, reference compound] shows pIC50 at minimum 6?
criterion not met

Would you say O=c1c2ccc(F)cc2nc(CSc2ncnc3[nH]cnc23)n1-c1ccccc1Cl shows pIC50 at minimum 6?
criterion not met

Would you say CCCCn1c(CSc2ncnc3[nH]cnc23)nc2ccccc2c1=O shows pIC50 at minimum 6?
criterion not met

====

- assay system: PI3Kα (Homo sapiens, UniProt P42336)
- Construct: His tag (pFastbac HTb vector) (N); FLAG; made in house; host or cells: Sf21 insect cells (baculovirus)
- Sequence (P42336 whole entry, one chain of several): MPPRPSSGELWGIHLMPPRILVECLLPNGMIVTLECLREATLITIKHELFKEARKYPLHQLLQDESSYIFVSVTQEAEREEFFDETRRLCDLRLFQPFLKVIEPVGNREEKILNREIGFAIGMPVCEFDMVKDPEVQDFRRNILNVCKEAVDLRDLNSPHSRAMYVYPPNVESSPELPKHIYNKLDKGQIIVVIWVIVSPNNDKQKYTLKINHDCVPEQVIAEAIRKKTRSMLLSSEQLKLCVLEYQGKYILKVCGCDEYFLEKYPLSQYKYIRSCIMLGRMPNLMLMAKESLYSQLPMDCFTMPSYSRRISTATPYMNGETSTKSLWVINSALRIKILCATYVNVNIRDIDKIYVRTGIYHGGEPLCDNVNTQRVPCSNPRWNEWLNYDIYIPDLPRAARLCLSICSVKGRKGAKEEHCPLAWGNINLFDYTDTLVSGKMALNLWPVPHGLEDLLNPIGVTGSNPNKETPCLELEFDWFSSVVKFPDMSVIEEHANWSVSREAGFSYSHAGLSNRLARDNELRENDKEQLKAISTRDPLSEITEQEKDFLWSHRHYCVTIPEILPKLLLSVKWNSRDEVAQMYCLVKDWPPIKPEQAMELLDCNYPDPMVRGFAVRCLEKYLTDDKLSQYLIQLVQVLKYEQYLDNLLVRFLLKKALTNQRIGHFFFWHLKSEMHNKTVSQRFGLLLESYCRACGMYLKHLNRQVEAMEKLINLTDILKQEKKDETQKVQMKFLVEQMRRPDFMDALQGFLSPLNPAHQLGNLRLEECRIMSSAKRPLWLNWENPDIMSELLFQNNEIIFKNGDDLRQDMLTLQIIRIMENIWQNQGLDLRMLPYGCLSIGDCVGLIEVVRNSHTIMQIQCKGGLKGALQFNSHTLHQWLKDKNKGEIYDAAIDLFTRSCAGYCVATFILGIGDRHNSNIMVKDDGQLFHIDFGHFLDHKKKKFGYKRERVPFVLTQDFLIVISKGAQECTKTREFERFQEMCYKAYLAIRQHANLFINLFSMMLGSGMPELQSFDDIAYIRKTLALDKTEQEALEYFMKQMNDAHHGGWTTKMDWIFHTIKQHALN
- run description: Biochemical assay of PI3K potency and selectivity using 20 μM ATP, Alpha
- cond: read-out: percent activity remaining at 100 μM, 20 μM ATP; 100 μM compound did not inhibit by at least 50%
property name: remaining activity at 100 µM (%)
Numbers only, in %.

Solved cases (3 shown):
# structure smiles string, remaining activity at 100 µM (%)
measured = [
    ("COc1cc2nc(CSc3ncnc4[nH]cnc34)n(-c3ccccc3Cl)c(=O)c2cc1OC", 91),
    ("O=c1c2c(F)cccc2nc(CSc2ncnc3[nH]cnc23)n1-c1ccccc1Cl", 65),
    ("O=c1c2c(Cl)cccc2nc(CSc2ncnc3[nH]cnc23)n1-c1ccccc1-c1ccccc1", 71),
]

Hi, could you look up remaining activity at 100 µM for each item in my list?
1. O=c1c2ccccc2nc(CSc2ncnc3[nH]cnc23)n1-c1cccc(Cl)c1
2. COc1ccccc1-n1c(CSc2ncnc3[nH]cnc23)nc2ccccc2c1=O

67
63

Hi, could you look up remaining activity at 100 µM for each item in my list?
1. COc1cc2nc(Cn3cnc4c(N)ncnc43)n(-c3ccccc3Cl)c(=O)c2cc1OC
2. O=c1c2ccccc2nc(CSc2ncnc3[nH]cnc23)n1-c1ccccc1Cl
3. O=c1c2ccccc2nc(CSc2ncnc3[nH]cnc23)n1Cc1ccccc1

1: 83; 2: 86; 3: 64

Entry Nc1ncnc2c1ncn2Cc1nc2cccc(F)c2c(=O)n1Cc1ccccc1 has what remaining activity at 100 µM?
110

====

Assign Alpha/Delta Ratio to each entry below.
- assay system: PI3Kα (Homo sapiens, UniProt P42336)
- Construct: His tag (pFastbac HTb vector) (N); FLAG; made in house; host or cells: Sf21 insect cells (baculovirus)
- run description: Biochemical assay of PI3K potency and selectivity using 20 μM ATP, Alpha
- cond: 20 μM ATP; ratio of IC50 values; > = hypothetical ratio with 100 μM substituted for the missing IC50

Solved cases (7 shown):
# structure smiles string, Alpha/Delta Ratio
records = [
    ("O=c1c2ccccc2nc(CSc2ncnc3[nH]cnc23)n1Cc1ccccc1", ">125"),
    ("Cc1cccc2nc(Cn3cnc4c(N)ncnc43)n(-c3ccccc3F)c(=O)c12", 449),
    ("CCOC(=O)Cn1c(CSc2ncnc3[nH]cnc23)nc2cccc(F)c2c1=O", ">13"),
    ("Nc1ncnc2c1ncn2Cc1nc2cccc(F)c2c(=O)n1Cc1ccccc1", ">100"),
    ("O=c1c2ccccc2nc(CSc2ncnc3[nH]cnc23)n1-c1ccccc1Cl", ">302"),
    ("Cc1cccc2nc(CSc3ncnc4[nH]cnc34)n(-c3c(Cl)cccc3Cl)c(=O)c12", 131),
    ("O=c1c2cccc(Cl)c2nc(CSc2ncnc3[nH]cnc23)n1-c1ccccc1Cl", 62),
]

Moving on to another compound below.
Entry CC(=O)O.CN1CCN(n2c(CSc3ncnc4[nH]cnc34)nc3ccccc3c2=O)CC1 has what Alpha/Delta Ratio?
25

====

- run description: Levels of D-030 in circulation (air pouch test)
- Assay type: in vivo
- cond: rat, blood, po; rats, 100 mg/kg in PEG 400 orally, twelve hours following dosing; read-out: Average compound in circulation
property name: concentration at 12 h
State the value, then name its unit.

Entry Cc1ccccc1-n1c(Cn2cnc3c(N)ncnc32)nc2cccc(C)c2c1=O [Compound D-030] has what concentration at 12 h?
8.7 µM

====

- assay system: PI3Kδ (Homo sapiens, UniProt O00329, S253N)
- Sequence (O00329 whole entry S253N): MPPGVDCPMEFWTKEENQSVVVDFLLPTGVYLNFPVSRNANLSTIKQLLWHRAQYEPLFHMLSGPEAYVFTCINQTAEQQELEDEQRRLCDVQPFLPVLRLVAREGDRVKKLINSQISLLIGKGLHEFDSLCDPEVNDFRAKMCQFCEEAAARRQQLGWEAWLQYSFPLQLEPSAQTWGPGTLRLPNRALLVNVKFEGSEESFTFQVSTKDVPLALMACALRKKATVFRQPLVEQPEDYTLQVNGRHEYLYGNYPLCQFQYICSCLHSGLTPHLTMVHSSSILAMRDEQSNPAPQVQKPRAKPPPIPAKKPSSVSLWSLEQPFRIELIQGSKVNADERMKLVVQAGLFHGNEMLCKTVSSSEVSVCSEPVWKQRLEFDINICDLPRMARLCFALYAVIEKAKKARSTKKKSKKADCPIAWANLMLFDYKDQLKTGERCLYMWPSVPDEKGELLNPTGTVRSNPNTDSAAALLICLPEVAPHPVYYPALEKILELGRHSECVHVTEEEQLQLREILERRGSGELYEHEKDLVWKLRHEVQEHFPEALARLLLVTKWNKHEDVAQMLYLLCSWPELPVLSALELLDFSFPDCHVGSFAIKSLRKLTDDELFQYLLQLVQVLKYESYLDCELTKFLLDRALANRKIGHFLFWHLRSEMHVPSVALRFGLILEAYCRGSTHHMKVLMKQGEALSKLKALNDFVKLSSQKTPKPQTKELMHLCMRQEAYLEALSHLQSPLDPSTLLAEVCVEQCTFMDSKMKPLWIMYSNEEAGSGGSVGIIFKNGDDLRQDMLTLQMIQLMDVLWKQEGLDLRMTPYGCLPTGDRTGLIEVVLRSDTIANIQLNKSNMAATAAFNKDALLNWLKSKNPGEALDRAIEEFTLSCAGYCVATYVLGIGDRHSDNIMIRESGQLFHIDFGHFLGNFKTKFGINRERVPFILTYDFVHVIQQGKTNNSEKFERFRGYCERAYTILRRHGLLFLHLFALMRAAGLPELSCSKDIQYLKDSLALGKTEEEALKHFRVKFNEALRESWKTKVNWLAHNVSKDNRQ
- Sequence (P27986 whole entry partner): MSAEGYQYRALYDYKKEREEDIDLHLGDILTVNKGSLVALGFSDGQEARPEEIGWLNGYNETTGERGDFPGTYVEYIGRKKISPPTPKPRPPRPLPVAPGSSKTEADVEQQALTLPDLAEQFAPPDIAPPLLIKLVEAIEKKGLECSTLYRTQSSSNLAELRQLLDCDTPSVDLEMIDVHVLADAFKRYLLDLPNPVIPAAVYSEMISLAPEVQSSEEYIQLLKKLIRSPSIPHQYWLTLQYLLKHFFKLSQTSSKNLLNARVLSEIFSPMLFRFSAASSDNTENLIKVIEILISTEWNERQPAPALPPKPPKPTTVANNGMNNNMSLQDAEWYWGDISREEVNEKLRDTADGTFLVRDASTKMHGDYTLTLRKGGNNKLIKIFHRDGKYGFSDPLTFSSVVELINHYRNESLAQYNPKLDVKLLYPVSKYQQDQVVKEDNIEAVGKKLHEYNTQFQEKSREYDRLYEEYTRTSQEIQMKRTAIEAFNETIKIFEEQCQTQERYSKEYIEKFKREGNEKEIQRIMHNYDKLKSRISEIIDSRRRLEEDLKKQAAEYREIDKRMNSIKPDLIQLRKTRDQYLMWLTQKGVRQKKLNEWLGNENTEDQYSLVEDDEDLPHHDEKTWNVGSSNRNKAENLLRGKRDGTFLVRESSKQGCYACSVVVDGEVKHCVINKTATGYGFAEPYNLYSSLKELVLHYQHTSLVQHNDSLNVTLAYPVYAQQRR
- run description: Biochemical assay using 200 μM ATP, Delta;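 further: radiometric filter-binding assay: PI3Kδ transfers ³²P from γ-[³²P]ATP onto PIP2/PS liposomes, counted by scintillation, enzyme-only wells as positive control, no-enzyme wells as background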
property name: IC50 (µM)
One number for each entry, in µM.

Solved cases (6 shown):
# compound, unit symbol, IC50
data = [
    ("COc1ccccc1-n1c(CSc2ncnc3[nH]cnc23)nc2cccc(C)c2c1=O [Compound D-047]", "µM", 0.2),
    ("Nc1ncnc2c1ncn2Cc1nc2cccc(F)c2c(=O)n1-c1ccccc1Cl [Compound D-005]", "µM", 11),
    ("CC(=O)O.O=c1c2ccccc2nc(CSc2ncnc3[nH]cnc23)n1N1CCOCC1 [Compound D-039, acetate salt]", "µM", 2.6),
    ("O=c1c2cc(F)ccc2nc(CSc2ncnc3[nH]cnc23)n1-c1ccccc1Cl [Compound D-028]", "µM", 1.6),
    ("Cc1cccc2nc(Cn3cnc4c(N)ncnc43)n(-c3ccccc3C(C)C)c(=O)c12 [Compound D-029]", "µM", 0.34),
    ("O=c1c2cc3ccccc3cc2nc(CSc2ncnc3[nH]cnc23)n1-c1ccccc1Cl [Compound D-019]", "µM", 30),
]

Hi, could you look up IC50 for each item in my list?
1. Cc1ccccc1-n1c(CSc2ncnc3[nH]cnc23)nc2cccc(Cl)c2c1=O [Compound D-010]
2. Cc1cccc2nc(CSc3ncnc4[nH]cnc34)n(-c3ccccc3C(C)C)c(=O)c12 [Compound D-035]
3. O=c1cc(N2CCOCC2)oc2c(-c3ccccc3)cccc12 [LY294002, reference compound]
4. Cc1cccc2nc(CSc3ncnc4[nH]cnc34)n(-c3c(Cl)cccc3Cl)c(=O)c12 [Compound D-034]
5. O=c1c2c(F)cccc2nc(CSc2ncnc3[nH]cnc23)n1-c1ccccc1Cl [Compound D-015]

[0.23, 0.49, 2.1, 1.2, 1.1]

Hi, could you look up IC50 for each item in my list?
1. CCCCn1c(CSc2ncnc3[nH]cnc23)nc2ccccc2c1=O [Compound D-038]
2. O=c1c2ccccc2nc(CSc2ncnc3[nH]cnc23)n1Cc1ccccc1 [Compound D-037]
3. O=c1c2ccccc2nc(CSc2ncnc3[nH]cnc23)n1-c1ccccc1Cl [Compound D-000]
4. Cc1cccc2nc(Cn3cnc4c(N)ncnc43)n(-c3ccccc3Cl)c(=O)c12 [Compound D-007]
5. Nc1ncnc2c1ncn2Cc1nc2cccc(Cl)c2c(=O)n1-c1ccccc1Cl [Compound D-006]
6. Nc1ncnc2c1ncn2Cc1nc2cccc(Cl)c2c(=O)n1-c1ccccc1F [Compound D-012]

1. 1.8
2. 3.5
3. 2
4. 0.73
5. 0.92
6. 1.3

Hi, could you look up IC50 for each item in my list?
1. O=c1c2ccc(F)cc2nc(CSc2ncnc3[nH]cnc23)n1-c1ccccc1Cl [Compound D-022]
2. Cc1cccc2nc(Cn3cnc4c(N)ncnc43)n(-c3ccccc3F)c(=O)c12 [Compound D-048]
3. O=c1c2c(Cl)cccc2nc(CSc2ncnc3[nH]cnc23)n1-c1ccccc1F [Compound D-011]
4. Cc1cccc2nc(CSc3ncnc4[nH]cnc34)n(-c3ccccc3Cl)c(=O)c12 [Compound D-026]

1: 4.2; 2: 1.4; 3: 0.25; 4: 0.38
